# Reported Conditions: in toluene, 298.15 K

>  <Given Smiles>
O=C1OC[C@H]2[C@@H]1N(Cc1ccccc1)C(=O)N2Cc1ccccc1

>  <solubility (mole fraction)>
0.0101

$$$$

----------
# Reported Conditions: in ethyl acetate, 308.25 K

>  <Given Smiles>
O=C1OC[C@H]2[C@@H]1N(Cc1ccccc1)C(=O)N2Cc1ccccc1

>  <solubility (mole fraction)>
0.0391

$$$$

----------
# Reported Conditions: in THF, 308.15 K

>  <Given Smiles>
O=C1OC[C@H]2[C@@H]1N(Cc1ccccc1)C(=O)N2Cc1ccccc1

>  <solubility (mole fraction)>
0.111

$$$$

----------
# Reported Conditions: in ethyl acetate, 314.15 K
Assay Readout: solubility (mole fraction)

>  <Given Smiles>
O=C1OC[C@H]2[C@@H]1N(Cc1ccccc1)C(=O)N2Cc1ccccc1

>  <Reported Value>
0.0487

$$$$

----------
# Reported Conditions: in THF, 323.25 K
Assay Readout: solubility (mole fraction)

>  <Given Smiles>
O=C1OC[C@H]2[C@@H]1N(Cc1ccccc1)C(=O)N2Cc1ccccc1

>  <Assay Readout>
solubility (mole fraction)

>  <Reported Value>
0.165

$$$$

----------
# Reported Conditions: in dichloromethane, 308.15 K
Assay Readout: solubility (mole fraction)

>  <Given Smiles>
O=C1OC[C@H]2[C@@H]1N(Cc1ccccc1)C(=O)N2Cc1ccccc1

>  <Assay Readout>
solubility (mole fraction)

>  <Reported Value>
0.149

$$$$

----------
# Reported Conditions: in methanol, 318.15 K

>  <Given Smiles>
O=C1OC[C@H]2[C@@H]1N(Cc1ccccc1)C(=O)N2Cc1ccccc1

>  <solubility (mole fraction)>
0.0211

$$$$

----------
# Reported Conditions: in ethyl acetate, 293.65 K

>  <Given Smiles>
O=C1OC[C@H]2[C@@H]1N(Cc1ccccc1)C(=O)N2Cc1ccccc1

>  <solubility (mole fraction)>
0.0221

$$$$

----------
# Reported Conditions: in toluene, 313.25 K

>  <Given Smiles>
O=C1OC[C@H]2[C@@H]1N(Cc1ccccc1)C(=O)N2Cc1ccccc1

>  <solubility (mole fraction)>
0.0197

$$$$

----------
# Reported Conditions: in THF, 313.05 K

>  <Given Smiles>
O=C1OC[C@H]2[C@@H]1N(Cc1ccccc1)C(=O)N2Cc1ccccc1

>  <solubility (mole fraction)>
0.126

$$$$

----------
# Reported Conditions: in dichloromethane, 305.45 K

>  <Given Smiles>
O=C1OC[C@H]2[C@@H]1N(Cc1ccccc1)C(=O)N2Cc1ccccc1

>  <solubility (mole fraction)>
0.144

$$$$

----------
# Reported Conditions: in dichloromethane, 293.25 K
Assay Readout: solubility (mole fraction)

>  <Given Smiles>
O=C1OC[C@H]2[C@@H]1N(Cc1ccccc1)C(=O)N2Cc1ccccc1

>  <Reported Value>
0.121

$$$$

----------
# Reported Conditions: in ethyl acetate, 323.75 K

>  <Given Smiles>
O=C1OC[C@H]2[C@@H]1N(Cc1ccccc1)C(=O)N2Cc1ccccc1

>  <solubility (mole fraction)>
0.0716

$$$$

----------
# Reported Conditions: in ethyl acetate, 304.15 K
Assay Readout: solubility (mole fraction)

>  <Given Smiles>
O=C1OC[C@H]2[C@@H]1N(Cc1ccccc1)C(=O)N2Cc1ccccc1

>  <Reported Value>
0.0332

$$$$

----------
# Reported Conditions: in DMF, 312.65 K
Assay Readout: solubility (mole fraction)

>  <Given Smiles>
O=C1OC[C@H]2[C@@H]1N(Cc1ccccc1)C(=O)N2Cc1ccccc1

>  <Reported Value>
0.211

$$$$

----------
# Reported Conditions: in dichloromethane, 311.35 K
Assay Readout: solubility (mole fraction)

>  <Given Smiles>
O=C1OC[C@H]2[C@@H]1N(Cc1ccccc1)C(=O)N2Cc1ccccc1

>  <Assay Readout>
solubility (mole fraction)

>  <Reported Value>
0.155

$$$$

----------
# Reported Conditions: in DMF, 293.15 K
Assay Readout: solubility (mole fraction)

>  <Given Smiles>
O=C1OC[C@H]2[C@@H]1N(Cc1ccccc1)C(=O)N2Cc1ccccc1

>  <Reported Value>
0.15

$$$$

----------
# Reported Conditions: in methanol, 287.15 K

>  <Given Smiles>
O=C1OC[C@H]2[C@@H]1N(Cc1ccccc1)C(=O)N2Cc1ccccc1

>  <solubility (mole fraction)>
0.0034

$$$$

----------
# Reported Conditions: in DMF, 308.15 K

>  <Given Smiles>
O=C1OC[C@H]2[C@@H]1N(Cc1ccccc1)C(=O)N2Cc1ccccc1

>  <solubility (mole fraction)>
0.196

$$$$

----------
# Reported Conditions: in toluene, 303.05 K

>  <Given Smiles>
O=C1OC[C@H]2[C@@H]1N(Cc1ccccc1)C(=O)N2Cc1ccccc1

>  <solubility (mole fraction)>
0.0125

$$$$

----------
# Reported Conditions: in DMF, 316.05 K

>  <Given Smiles>
O=C1OC[C@H]2[C@@H]1N(Cc1ccccc1)C(=O)N2Cc1ccccc1

>  <solubility (mole fraction)>
0.224

$$$$

----------
# Reported Conditions: in dichloromethane, 299.35 K

>  <Given Smiles>
O=C1OC[C@H]2[C@@H]1N(Cc1ccccc1)C(=O)N2Cc1ccccc1

>  <solubility (mole fraction)>
0.132

$$$$

----------
# Reported Conditions: in dichloromethane, 296.45 K

>  <Given Smiles>
O=C1OC[C@H]2[C@@H]1N(Cc1ccccc1)C(=O)N2Cc1ccccc1

>  <solubility (mole fraction)>
0.127

$$$$

----------
# Reported Conditions: in toluene, 323.75 K
Assay Readout: solubility (mole fraction)

>  <Given Smiles>
O=C1OC[C@H]2[C@@H]1N(Cc1ccccc1)C(=O)N2Cc1ccccc1

>  <Assay Readout>
solubility (mole fraction)

>  <Reported Value>
0.0316

$$$$

----------
# Reported Conditions: in methanol, 298.15 K
Assay Readout: solubility (mole fraction)

>  <Given Smiles>
O=C1OC[C@H]2[C@@H]1N(Cc1ccccc1)C(=O)N2Cc1ccccc1

>  <Reported Value>
0.0067

$$$$

----------
# Reported Conditions: in DMF, 303.15 K

>  <Given Smiles>
O=C1OC[C@H]2[C@@H]1N(Cc1ccccc1)C(=O)N2Cc1ccccc1

>  <solubility (mole fraction)>
0.179

$$$$

----------
# Reported Conditions: in DMF, 298.15 K

>  <Given Smiles>
O=C1OC[C@H]2[C@@H]1N(Cc1ccccc1)C(=O)N2Cc1ccccc1

>  <solubility (mole fraction)>
0.163

$$$$

----------
# Reported Conditions: in THF, 293.35 K

>  <Given Smiles>
O=C1OC[C@H]2[C@@H]1N(Cc1ccccc1)C(=O)N2Cc1ccccc1

>  <solubility (mole fraction)>
0.074

$$$$

----------
# Reported Conditions: in methanol, 308.05 K

>  <Given Smiles>
O=C1OC[C@H]2[C@@H]1N(Cc1ccccc1)C(=O)N2Cc1ccccc1

>  <solubility (mole fraction)>
0.0119

$$$$

----------
# Reported Conditions: in ethyl acetate, 298.35 K

>  <Given Smiles>
O=C1OC[C@H]2[C@@H]1N(Cc1ccccc1)C(=O)N2Cc1ccccc1

>  <solubility (mole fraction)>
0.0271

$$$$

Source of measurements: BigSolDB 2.1
